- targetUnderTest: Bradykinin receptor (Cavia porcellus)
- Sequence (O70526 whole entry): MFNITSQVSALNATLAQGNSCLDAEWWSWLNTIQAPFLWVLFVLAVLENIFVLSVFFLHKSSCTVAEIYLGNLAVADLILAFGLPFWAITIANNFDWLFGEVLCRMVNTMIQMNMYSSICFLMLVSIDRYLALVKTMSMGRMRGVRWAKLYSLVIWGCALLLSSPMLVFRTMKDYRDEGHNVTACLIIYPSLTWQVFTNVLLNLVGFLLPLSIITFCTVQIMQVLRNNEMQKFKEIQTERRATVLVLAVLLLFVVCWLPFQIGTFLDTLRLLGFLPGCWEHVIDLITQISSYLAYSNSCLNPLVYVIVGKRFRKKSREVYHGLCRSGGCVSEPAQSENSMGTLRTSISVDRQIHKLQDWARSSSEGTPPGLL
- procedureDetails: 3H-Bradykinin receptor binding (crude guinea pig ileum membrane)
- reportedConditions: crude ileum membrane of male Hartly strain guinea pigs; 3H-Bradykinin 0.06 nM; room temperature, 60 minutes; read-out: Inhibition of 3H-Bradykinin binding IC50
Structures can show the parent of a compound that is named as a salt.
valueKind: IC50 (nM)

CNC(=O)c1ccc(C=CC(=O)NCc2sccc2-c2ccc(C)c(COc3cccc4ccc(C)nc34)c2C)cc1 [45-(6) (hydrochloride)]: 2.8
CNC(=O)c1ccc(/C=C/C(=O)NCc2cccn2-c2ccc(Cl)c(COc3cccc4c(-n5ccnc5)cc(C)nc34)c2Cl)cc1 [33 (dihydrochloride)]: 3.2
Cc1ccc2cccc(OCc3c(Cl)ccc(-n4cccc4CNC(=O)/C=C/c4ccc(/C=C/c5ccncc5)nc4)c3Cl)c2n1 [15 (trihydrochloride)]: 2.6
CCOC(=O)c1ccc(/C=C/C(=O)NCc2cccn2-c2ccc(Cl)c(COc3cccc4ccc(C)nc34)c2Cl)cn1: 3.3

[A] Cc1nc2c(OCc3c(Cl)ccc(-n4cccc4CNC(=O)/C=C/c4ccc(/C=C/c5ccncc5)nc4)c3Cl)cccn2c1Br [23-(3) (trihydrochloride)]
[B] CNC(=O)c1ccc(/C=C/C(=O)NCc2ccccc2-c2ccc(C)c(COc3cccc4ccc(C)nc34)c2C)cc1
[C] CNC(=O)c1ccc(C=CC(=O)NC/C=C\c2ccc(Cl)c(COc3cccc4ccc(C)nc34)c2Cl)cc1OC [50-(1) (hydrochloride)]
**Q:** Given 3 molecules, produce a descending ranking by IC50. Please, when replying, give the labels in the order that was requested.
**A:** C, A, B
(C: 7.4 nM, A: 4.3 nM, B: 2.3 nM)
